FYI, the data here is from patent US6274606A.

Some molecules, each annotated with its measured Ganglion Effect (% nicotine).
TARGET OR SYSTEM: ganglionic receptors (Rattus norvegicus, UniProt P04757+P12392)
Construct: endogenous in cells; host or cells: cell preparations derived from the adrenal gland
Sequence (P04757 26-499): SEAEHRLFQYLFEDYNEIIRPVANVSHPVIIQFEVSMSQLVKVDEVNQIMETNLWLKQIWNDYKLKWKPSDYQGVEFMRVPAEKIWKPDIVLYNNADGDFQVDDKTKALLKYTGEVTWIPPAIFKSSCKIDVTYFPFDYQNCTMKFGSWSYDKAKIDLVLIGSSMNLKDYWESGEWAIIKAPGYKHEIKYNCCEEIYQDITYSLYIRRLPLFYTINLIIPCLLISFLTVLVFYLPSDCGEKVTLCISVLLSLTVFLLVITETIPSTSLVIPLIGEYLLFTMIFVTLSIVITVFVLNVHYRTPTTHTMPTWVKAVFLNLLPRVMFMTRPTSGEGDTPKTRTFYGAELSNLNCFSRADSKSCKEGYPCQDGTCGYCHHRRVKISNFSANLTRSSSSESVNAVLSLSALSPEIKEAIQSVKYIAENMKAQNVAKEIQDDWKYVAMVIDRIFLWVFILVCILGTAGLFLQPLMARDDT
Sequence (P12392 21-495): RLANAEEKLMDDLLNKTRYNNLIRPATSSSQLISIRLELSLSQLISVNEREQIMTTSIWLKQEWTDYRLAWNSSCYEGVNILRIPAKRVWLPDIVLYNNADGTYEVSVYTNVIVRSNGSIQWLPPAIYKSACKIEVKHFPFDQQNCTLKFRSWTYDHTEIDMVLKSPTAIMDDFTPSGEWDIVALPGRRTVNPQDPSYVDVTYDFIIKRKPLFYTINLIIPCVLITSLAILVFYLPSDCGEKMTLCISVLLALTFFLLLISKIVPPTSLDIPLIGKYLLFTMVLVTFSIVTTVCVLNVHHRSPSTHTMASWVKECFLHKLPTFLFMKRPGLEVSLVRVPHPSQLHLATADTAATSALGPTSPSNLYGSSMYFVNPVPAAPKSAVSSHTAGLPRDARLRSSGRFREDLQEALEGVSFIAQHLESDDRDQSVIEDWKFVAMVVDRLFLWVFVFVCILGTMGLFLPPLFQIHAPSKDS
EXPERIMENT SUMMARY: cell-based
Type: cell-based
REPORTED CONDITIONS: ganglionic cell preparations
ATTRIBUTE MEASURED: Ganglion Effect (% nicotine)

[[record]]
compound = "NCC/C=C/c1cncc(Br)c1"
attribute_measured = "Ganglion Effect (% nicotine)"
result_comparator = "="
recorded_result = 11

[[record]]
compound = "CNCC/C=C/c1cncc(Oc2ccccc2)c1"
attribute_measured = "Ganglion Effect (% nicotine)"
result_comparator = "<"
recorded_result = 15

[[record]]
compound = "CNCC/C=C/c1cncc(OCc2ccccc2)c1"
attribute_measured = "Ganglion Effect (% nicotine)"
result_comparator = "="
recorded_result = 0

[[record]]
compound = "CNCC/C=C/c1cncc(COC)c1"
attribute_measured = "Ganglion Effect (% nicotine)"
result_comparator = "="
recorded_result = 0

[[record]]
compound = "CNCC/C=C/c1cncc(N)c1"
attribute_measured = "Ganglion Effect (% nicotine)"
result_comparator = "="
recorded_result = 4

[[record]]
compound = "CNCC/C=C/c1cncc(OC(C)C)c1"
attribute_measured = "Ganglion Effect (% nicotine)"
result_comparator = "<"
recorded_result = 15

[[record]]
compound = "CNCC/C=C/c1cncc(-c2ccccc2)c1"
attribute_measured = "Ganglion Effect (% nicotine)"
result_comparator = "="
recorded_result = 0

[[record]]
compound = "NCC/C=C/c1cccnc1.O=C(O)/C=C/C(=O)O.O=C(O)/C=C/C(=O)O"
attribute_measured = "Ganglion Effect (% nicotine)"
result_comparator = "="
recorded_result = 23

